Reference for the values: patent US20260167959A1

# System: Renilla luciferase RNA
# measurementNotes: Barcoded aptazyme variant library screen: un-cleaved Renilla luciferase RNA by barcode read counts, HEK293-T cells
# Type: cell-based
# conditionsUsed: un-cleaved Renilla luciferase RNA, HEK293-T cells cultured with 1 mM theophylline (ON) over without theophylline (OFF); barcode read counts, triplicate
Field: label. Allowed values: Met (Fold change in RNA expression between the ON state and the OFF state < 2 fold) or Not met (Fold change in RNA expression between the ON state and the OFF state >= 2 fold).

molecule	answerLabel
RA019 (nucleic acid, expressed or natural sequence) DNA: GCGCGTCCTGGATTCGCGGAAACGCGTACATCCAGCTGACGGGAATACCAGCATCGTCTTGATGCCCTTGGAAGTCCAGTCCCAAATAGGACAAAACGCGC	Not met
RA032 (nucleic acid, expressed or natural sequence) DNA: GCGCGTCCTGGATTCGCGGAAAAGTGATACCAGCATCGTCTTGATGCCCTTGGCAGCACTCGCGTACATCCAGCTGACGAGTCCCAAATAGGACGAAACGCGC	Not met
RA187 (nucleic acid, expressed or natural sequence) DNA: GCGCGTCCTGGATTCGCGGAAACGCGTACATCCAGCTGACGAGTCCCAAATAGGACGAAACGCGCGAGAATACCAGCATCGTCTTGATGCCCTTGGAAGTCTC	Met
RA068 (nucleic acid, expressed or natural sequence) DNA: GCGCGTCCTGGATTCGCCCGGAATACCAGCATCGTCTTGATGCCCTTGGAAGTCCGGGGAAACGCGTACATCCAGCTGACGAGTCCCAAATAGGACGAAACGCGC	Met
RA133 (nucleic acid, expressed or natural sequence) DNA: GCGCGAGAATACCAGCATCGTCTTGATGCCCTTGGAAGTCTCGTCCTGGATTCGCGGAAACGCGTACATCCAGCTGACGAGTCCCAAATAGGACGAAACGCGC	Met
RA209 (nucleic acid, expressed or natural sequence) DNA: GCGCGTCCTGGATTCGCGGAGAGAATACCAGCATCGTCTTGATGCCCTTGGAAGTCTCAACGCGTACATCCAGCTGACGAGTCCCAAATAGGACGAAACGCGC	Met
RA062 (nucleic acid, expressed or natural sequence) DNA: GCGCGTCCTGGATTCGCGGAAACGCCCGGAATACCAGCATCGTCTTGATGCCCTTGGAAGTCCGGGTACATCCAGCTGACGAGTCCCAAATAGGACGAAACGCGC	Met
